Where do these numbers come from? They come from PubChem BioAssay AID652115.

target: NAD-dependent protein deacylase sirtuin-5, mitochondrial (Homo sapiens) (UniProt Q9NXA8); assay: blockers of sirtuin-5 deacylase activity – biochemical, fluorescence imaging, single point, set 5, primary screen (AID 652115); settings: Purified SirT5, succinyl-peptide AMC, trypsin-coupled fluorescence; at 15 µM
Sequence (Q9NXA8 whole entry, looked up): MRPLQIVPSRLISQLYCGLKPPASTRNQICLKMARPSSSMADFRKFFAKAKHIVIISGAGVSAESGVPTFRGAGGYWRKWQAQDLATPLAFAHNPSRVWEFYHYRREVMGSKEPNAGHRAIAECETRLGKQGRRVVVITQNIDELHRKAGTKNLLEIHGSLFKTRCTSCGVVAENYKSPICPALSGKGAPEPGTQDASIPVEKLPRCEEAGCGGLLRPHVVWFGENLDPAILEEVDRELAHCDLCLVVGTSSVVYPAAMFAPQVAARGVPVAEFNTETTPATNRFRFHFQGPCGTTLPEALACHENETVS
About 3,800 (1.2%) of roughly 330,000 compounds were called active. Cut-off read from the data, not from the text of the source: active = inhibition above about 15%; inconclusive = no clear call, values can overlap the other calls; inactive = below that. Only a selection was taken, and actives are over-represented in it overall.
In this exercise, the only acceptable responses are active, inactive

These solved cases illustrate the format of a correct answer.
MOLECULE	TEST TARGET	LABEL CLASS
C[C@@H]1CN([C@H](C)CO)C(=O)c2cccc(NC(=O)Nc3ccccc3)c2O[C@@H]1CN(C)C(=O)NC1CCCCC1	NAD-dependent protein deacylase sirtuin-5, mitochondrial (Homo sapiens) (UniProt Q9NXA8)	inactive
Cc1cnc(C)c(N2CCN(C(=O)C3CCC(=O)N(CCc4cccc(F)c4)C3)CC2)n1 (stereo not drawn)	NAD-dependent protein deacylase sirtuin-5, mitochondrial (Homo sapiens) (UniProt Q9NXA8)	inactive
O=C1CCC(C(=O)N2CCC(O)(c3ccccc3)CC2)CN1CCc1ccccc1 (stereo not drawn)	NAD-dependent protein deacylase sirtuin-5, mitochondrial (Homo sapiens) (UniProt Q9NXA8)	active
O=C(NCCCc1ccccc1)C1CCC(=O)N(CCc2ccc(Cl)cc2)C1 (stereo not drawn)	NAD-dependent protein deacylase sirtuin-5, mitochondrial (Homo sapiens) (UniProt Q9NXA8)	inactive
C[C@@H](NC(=O)C[C@H]1C[C@H]2c3cc(NC(=O)C4CCOCC4)ccc3O[C@H]2[C@@H](CO)O1)c1ccccc1	NAD-dependent protein deacylase sirtuin-5, mitochondrial (Homo sapiens) (UniProt Q9NXA8)	inactive
N#Cc1ccc(-c2ccc([C@@H]3[C@H]4CNC[C@@H]3N4Cc3cc(F)ccc3F)cc2)cc1	NAD-dependent protein deacylase sirtuin-5, mitochondrial (Homo sapiens) (UniProt Q9NXA8)	inactive
C[C@H](CO)N1C[C@H](C)[C@@H](CN(C)C(=O)NC2CCCCC2)Oc2c(NC(=O)Nc3ccc(F)cc3)cccc2C1=O	NAD-dependent protein deacylase sirtuin-5, mitochondrial (Homo sapiens) (UniProt Q9NXA8)	active

Kindly consider the entry below.
Ask: Lab log entry: `CC(C)NC(=O)Nc1cccc2c1O[C@H](CN(C)S(=O)(=O)c1cccs1)[C@@H](C)CN([C@H](C)CO)C2=O` — outcome as called in the assay?
Result: active

###

biological target: NAD-dependent protein deacylase sirtuin-5, mitochondrial (Homo sapiens); assay: blockers of sirtuin-5 deacylase activity – biochemical, fluorescence imaging, single point, set 5, primary screen (AID 652115); conditions: Purified SirT5, succinyl-peptide AMC, trypsin-coupled fluorescence; at 15 µM; hits give high values
Hit rate of the full screen: of about 330,000 compounds, about 3,800 (1.2%) were called active. For the sample, actives were picked, then their nearest neighbours and some compounds at random.
READOUT LABEL: inhibition (%)
Respond with the bare value in %.

These recorded examples may help you get a feel for the data.
MOLECULAR STRING	TEST TARGET	READOUT LABEL	QUANTITATIVE READOUT
CNC(=O)c1ccc2nc(NC(C)=O)sc2c1	NAD-dependent protein deacylase sirtuin-5, mitochondrial (Homo sapiens)	inhibition	17.4
O=C(C[C@H]1C[C@H]2c3cc(NC(=O)NC4CCCC4)ccc3O[C@H]2[C@H](CO)O1)NCCc1ccccc1	NAD-dependent protein deacylase sirtuin-5, mitochondrial (Homo sapiens)	inhibition	-4.04

Ask: Recorded inhibition for `CS(=O)(=O)c1ccc2nc(NC(=O)c3ccc(Cl)nc3)sc2c1` , please?
Result: 2.94

Ask: // next record `CN1c2ccc(-c3ccccc3)cc2[C@@H]2[C@@H](CCN2C(=O)c2ccccc2)[C@H]1CO`
Result: 6.95

Ask: // next record `O=C(C[C@@H]1CC[C@@H](NS(=O)(=O)c2ccc(F)cc2)[C@H](CO)O1)NCc1ccc(Cl)c(Cl)c1`
Result: -7.51

###

Quick reference for inhibition among some compounds
target: NAD-dependent protein deacylase sirtuin-5, mitochondrial (Homo sapiens); assay: blockers of sirtuin-5 deacylase activity – biochemical, fluorescence imaging, single point, set 5, primary screen (AID 652115); conditions: Purified SirT5, succinyl-peptide AMC, trypsin-coupled fluorescence; at 15 µM; hits give high values
Out of some 330,000 compounds screened, about 3,800 (1.2%) were called active. The full list was thinned out, with actives kept by preference.
Respond with the bare value in %.

These recorded examples may help you get a feel for the data.
COMPOUND	inhibition [%]
COc1cccc(S(=O)(=O)N[C@@H]2C=C[C@H](CC(=O)NC3CCC3)O[C@@H]2CO)c1	-3.76
CN(C)CC(=O)N1[C@@H](C#N)[C@@H](c2ccccc2-c2ccccc2F)[C@@H]1CO	-0.215
COc1cc(C)c(CN2CCN(C(=O)CCC(=O)c3ccc(C)s3)CC2)cc1OC	19.2
C[C@H](CO)N1C[C@H](C)[C@H](CN(C)CC2CCCCC2)OCCCC[C@H](C)Oc2ccc(NC(=O)c3ccncc3)cc2C1=O	2.1
O=C(C[C@@H]1C[C@@H]2c3cc(NS(=O)(=O)c4ccc(F)cc4)ccc3O[C@@H]2[C@H](CO)O1)NCc1cc(F)ccc1F	-3.29

Shift focus to the following entry.
Ask: Recorded inhibition for `CO[C@@H](CN(C)C(=O)c1cnccn1)[C@@H](C)CN([C@@H](C)CO)S(=O)(=O)c1ccc(F)cc1` , please?
Result: 3.39

###

target: NAD-dependent protein deacylase sirtuin-5, mitochondrial (Homo sapiens); assay: blockers of sirtuin-5 deacylase activity – biochemical, fluorescence imaging, single point, set 5, primary screen (AID 652115); conditions: Purified SirT5, succinyl-peptide AMC, trypsin-coupled fluorescence; at 15 µM; hits give high values
In all, about 330,000 compounds went through this assay and about 3,800 (1.2%) were called active. The full list was thinned out, with actives kept by preference.
READOUT LABEL: inhibition (%)
Respond with the bare value in %.

These recorded examples may help you get a feel for the data.
COMPOUND	READING UNIT	QUANTITATIVE READOUT
O=S1(=O)CC(N2CCN(CCO)CC2)CN1Cc1cn(Cc2cccc(Cl)c2)nn1 (centres undefined)	%	-5.71
Cc1ccc(Cn2cc(CN3CC(N4CCN(C)CC4)CS3(=O)=O)nn2)cc1 (centres undefined)	%	3.71
Cc1noc(C)c1NC(=O)N[C@@H]1CC[C@H](CC(=O)Nc2ccccc2)O[C@H]1CO	%	5.15

Ask: Recorded inhibition for `CCCCNC(=O)C[C@@H]1C[C@@]2(C(=O)OC)CC(C)(C)CC=C2N(Cc2ccco2)C1=O` , please?
Result: 21.7

Ask: // next record `Cc1noc(C)c1NC(=O)N[C@@H]1C=C[C@@H](CC(=O)Nc2ccccc2)O[C@H]1CO`
Result: 32.2

Ask: // next record `O=C(C[C@H]1CC[C@@H]2[C@H](COC[C@H](O)CN2S(=O)(=O)c2ccccc2)O1)N1CCOCC1`
Result: -0.872

Ask: // next record `O=C(COC(=O)c1ccc([N+](=O)[O-])o1)NC12CC3CC(CC(C3)C1)C2`
Result: -5.22

Ask: // next record `CCCCNC(=O)C[C@@H]1C[C@@]2(C(=O)OCC)CCC=C2N(Cc2ccco2)C1=O`
Result: 4.42

Ask: // next record `COc1cccc(-c2ccc3n(c2=O)C[C@@H]2[C@@H](CO)[C@H](C(=O)N4CCCCC4)N[C@H]32)c1`
Result: -26.1

###

Quick reference for inhibition among some molecules
target: NAD-dependent protein deacylase sirtuin-5, mitochondrial (Homo sapiens); experiment: blockers of sirtuin-5 deacylase activity – biochemical, fluorescence imaging, single point, set 5, primary screen (AID 652115); details: Purified SirT5, succinyl-peptide AMC, trypsin-coupled fluorescence; at 15 µM; hits give high values
In all, about 330,000 compounds went through this assay and about 3,800 (1.2%) were called active. The list comes from a sample in which actives are over-represented; it also holds close analogues and randomly drawn compounds.
Respond with the bare value in %.

These recorded examples may help you get a feel for the data.
MOLECULAR STRING	TEST TARGET	inhibition [%]
CC(C)CC#Cc1ccc2c(c1)O[C@H](CN(C)S(=O)(=O)c1cccc(F)c1)[C@@H](C)CN([C@@H](C)CO)S2(=O)=O	NAD-dependent protein deacylase sirtuin-5, mitochondrial (Homo sapiens)	19.1
CCc1nnc(NS(=O)(=O)c2ccc(NC(=S)NC(=O)/C=C/c3cccs3)cc2)s1	NAD-dependent protein deacylase sirtuin-5, mitochondrial (Homo sapiens)	9.43
C[C@@H]1CN([C@H](C)CO)C(=O)c2cc(C#CCC3CCCC3)cnc2O[C@H]1CN(C)Cc1ccccn1	NAD-dependent protein deacylase sirtuin-5, mitochondrial (Homo sapiens)	-6.11
O=[N+]([O-])c1ccc2c(c1)Nc1nc3ccccc3nc1N2	NAD-dependent protein deacylase sirtuin-5, mitochondrial (Homo sapiens)	1.03
COc1ccccc1-n1c(SCC(=O)Nc2cccc(C(=O)O)c2)nnc1-c1ccccc1O	NAD-dependent protein deacylase sirtuin-5, mitochondrial (Homo sapiens)	3.18
O=C(COC(=O)c1ccccc1)c1ccc2c(c1)OCCO2	NAD-dependent protein deacylase sirtuin-5, mitochondrial (Homo sapiens)	0.878

Ask: Recorded inhibition for `CCOc1cc(C)ccc1OCc1nnc(SCC(=O)Nc2cccc(C(=O)O)c2)n1-c1ccccc1` , please?
Result: 60.5

Ask: // next record `COc1ccc2c3c([nH]c2c1)[C@@H](CO)N(Cc1cccc(F)c1)CC31CN(CC2CC2)C1`
Result: 3.68
